Measured pEC50 by item
- Test system: SARS-CoV-2 replicon system (pBAC-SARS-CoV-2-Replicon-Luc)
- Test Description: microbe, parasite or virus in culture
- Type: cell-based
- Settings: Severe acute respiratory syndrome coronavirus 2, HEK-293T, 60 h, read-out: EC50 (Confidence 95%), replicon
Please note pEC50 is a logarithmic value: minus log10 of concentration in mol/L. Answer with that number alone.

Check out these entries, answers already filled in.
Molecule: CC(C)[C@@H](N)C(=O)OC[C@H]1O[C@@](C#N)(c2ccc3c(N)ncnn23)[C@H](O)[C@@H]1O [ATV019]
Measurement Target: SARS-CoV-2 replicon system (pBAC-SARS-CoV-2-Replicon-Luc)
Val: 6.01
//
Molecule: CCC(C)[C@@H](N)C(=O)OC[C@H]1O[C@@](C#N)(c2ccc3c(N)ncnn23)[C@H](O)[C@@H]1O (stereo partly shown) [ATV024]
Measurement Target: SARS-CoV-2 replicon system (pBAC-SARS-CoV-2-Replicon-Luc)
Val: 6.06
//
Molecule: N#C[C@@]1(c2ccc3c(N)ncnn23)O[C@H](COC(=O)CC(F)(F)F)[C@@H](O)[C@H]1O [ATV016]
Measurement Target: SARS-CoV-2 replicon system (pBAC-SARS-CoV-2-Replicon-Luc)
Val: 6.08
//
Molecule: CC(C)[C@H](N)C(=O)OC[C@H]1O[C@@](C#N)(c2ccc3c(N)ncnn23)[C@H](O)[C@@H]1O [ATV020]
Measurement Target: SARS-CoV-2 replicon system (pBAC-SARS-CoV-2-Replicon-Luc)
Val: 5.63
//
Molecule: N#C[C@@]1(c2ccc3c(N)ncnn23)O[C@H](COC(=O)C2CCCC2)[C@@H](O)[C@H]1O [ATV015]
Measurement Target: SARS-CoV-2 replicon system (pBAC-SARS-CoV-2-Replicon-Luc)
Val: 6.15

Input CC(C)CC(=O)OC[C@H]1O[C@@](C#N)(c2ccc3c(N)ncnn23)[C@H](O)[C@@H]1O [ATV017] . Output pEC50: 6.36

For reference, reported pEC50 for CCC(CC)C(=O)OC[C@H]1O[C@@](C#N)(c2ccc3c(N)ncnn23)[C@H](O)[C@@H]1O [ATV011] stands at 6.49

// CCCC(=O)OC[C@H]1O[C@@](C#N)(c2ccc3c(N)ncnn23)[C@H](O)[C@@H]1O [ATV009] : pEC50 value = 6.66

In plain terms, CC(=O)OC[C@H]1O[C@@](C#N)(c2ccc3c(N)ncnn23)[C@H](OC(C)=O)[C@@H]1OC(C)=O [ATV003] has a documented pEC50 of 6.08

The measured pEC50 associated with CCC(=O)OC[C@H]1O[C@@](C#N)(c2ccc3c(N)ncnn23)[C@H](O)[C@@H]1O [ATV008] reads 6.09
